tested on: MOLT-4; experiment: Cytotoxicity against human MOLT4 cells after 48 hrs by MTT assay; type: functional, cell-based; conditions: MOLT-4, 48 h
Label true when IC50 < 400 nM; otherwise false.

// below: answered molecules
COc1cc(/C=C2\CC/C(=C\c3ccc(OCCN(C)C)c(OC)c3)C2=O)ccc1OCCN(C)C
true
COc1cc(/C=C2\CCC/C(=C\c3ccc(OCCCN4CCCCC4)c(OC)c3)C2=O)ccc1OCCCN1CCCCC1
false
COc1cc(/C=C2\CC/C(=C\c3ccc(OCCn4ccnc4C)c(OC)c3)C2=O)ccc1OCCn1ccnc1C
true
COc1cc(/C=C2\CC/C(=C\c3ccc(OCCCN(C)C)c(OC)c3)C2=O)ccc1OCCCN(C)C
false
O=C1/C(=C/c2ccc(OCCCCN3CCCCC3)cc2)CCC/C1=C\c1ccc(OCCCCN2CCCCC2)cc1
false

Read the next record carefully.
### Prompt IC50 under 400 nM? Item: CN(C)CCCCOc1ccc(/C=C2\CC/C(=C\c3ccc(OCCCCN(C)C)cc3)C2=O)cc1
### Response true

###

test system: MOLT-4; assay: Cytotoxicity against human MOLT4 cells after 48 hrs by MTT assay; type: functional, cell-based; settings: MOLT-4, 48 h
recordedMetric: pIC50
Scale: negative log10 of molar concentration, which is what pIC50 denotes.

COc1cc(/C=C2\CC/C(=C\c3ccc(OCCCCN4CCCCC4)c(OC)c3)C2=O)ccc1OCCCCN1CCCCC1
6.49

### Prompt Fill in the blank: the reported pIC50 of COc1cc(/C=C2\CC/C(=C\c3ccc(OCCN4CCCCC4)c(OC)c3)C2=O)ccc1OCCN1CCCCC1 is ____.
### Response 7.70

### Prompt Fill in the blank: the reported pIC50 of COc1cc(/C=C2\CC/C(=C\c3ccc(OCCCn4ccnc4C)c(OC)c3)C2=O)ccc1OCCCn1ccnc1C is ____.
### Response 6.18

### Prompt Fill in the blank: the reported pIC50 of COc1cc(/C=C2\CC/C(=C\c3ccc(OCCCCN4CCOCC4)c(OC)c3)C2=O)ccc1OCCCCN1CCOCC1 is ____.
### Response 6.44

###

Entries and their measured selectivity ratio follow.
assay: Selectivity index, ratio of IC50 for african green monkey Vero cells to IC50 for chloroquine-sensitive Plasmodium falciparum D6; format: toxicity, cell-based; conditions: read-out: Ratio IC50

// solved cases for selectivity ratio follow
COc1cc(/C=C2\CC/C(=C\c3ccc(OCCCCN4CCCCCC4)c(OC)c3)C2=O)ccc1OCCCCN1CCCCCC1
> 5.3
C[C@@H]1CC[C@H]2[C@@H](C)C(=O)O[C@@H]3O[C@@]4(C)CC[C@@H]1[C@]32OO4
> 470
COc1cc(/C=C2\CC/C(=C\c3ccc(OCCCCn4ccnc4C)c(OC)c3)C2=O)ccc1OCCCCn1ccnc1C
> 1.9
COc1cc(/C=C2\CC/C(=C\c3ccc(OCCN(C)C)c(OC)c3)C2=O)ccc1OCCN(C)C
> 21.6
COc1cc(/C=C2\CC/C(=C\c3ccc(OCCN4CCCCC4)c(OC)c3)C2=O)ccc1OCCN1CCCCC1
> 16.4
COc1cc(/C=C2\CC/C(=C\c3ccc(OCCN4CCOCC4)c(OC)c3)C2=O)ccc1OCCN1CCOCC1
> 2.6

### Prompt Fill in the blank: the reported selectivity ratio of O=C1/C(=C/c2ccc(OCCCCn3ccnc3)cc2)CC/C1=C\c1ccc(OCCCCn2ccnc2)cc1 is ____.
### Response > 4.3

### Prompt Fill in the blank: the reported selectivity ratio of COc1cc(/C=C2\CC/C(=C\c3ccc(OCCCN(C)C)c(OC)c3)C2=O)ccc1OCCCN(C)C is ____.
### Response > 7.9
